Target: T1, mouse IL-2Rα (mouse, UniProt P01590 22-236, limits assumed)
T1 construct: recombinant protein; also called mo IL-2R; mouse IL-2Ra
T1 sequence (looked up): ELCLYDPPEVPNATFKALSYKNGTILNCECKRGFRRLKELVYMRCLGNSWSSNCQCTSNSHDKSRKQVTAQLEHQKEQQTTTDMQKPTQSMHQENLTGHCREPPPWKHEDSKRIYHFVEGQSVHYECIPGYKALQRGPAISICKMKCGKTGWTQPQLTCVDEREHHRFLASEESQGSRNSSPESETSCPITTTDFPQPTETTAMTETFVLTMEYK
Assay: ELISA, P.E. on coated antigen
Experimental: In a binding ELISA, human or mouse IL-2Rα, IL-2Rβ and IL-2Rγ proteins were coated directly on maxisorp microtiter plates overnight at 4° C. Free binding sites were blocked using 4% Marvel in PBS for 1 hour. Next, 1:5 dilution of P.E. in 1% Marvel/PBS were added to wells and incubated for 1 hour. […] Binding specificity was determined based on O.D. at 450 nm values compared to negative controls.
EXPERIMENTAL ENDPOINT: OD (PE binding ELISA) (OD450 nm)
Provide the reading as a plain figure in OD450 nm.

Observe how each entry below is paired with its result.
BINDER	DATA VALUE
FJ1427_P035MP05C06 (VHH, periplasmic extract; also called clone nr) VHH: QVQLVESGGGLVQAGGSLRLSCAASGLTFDGYAIGWFRQASGKEREGVSYINGRDGSTFYTDSVKGRFIISSDNAKNTVDLQMNSLKPDDAAVYYCAVDRLGSRGAYVSSWWRSPDMDLWGKGTLVTVSS	0.071
FJ1427_P035MP05E04 (VHH, periplasmic extract; also called clone nr) VHH: QVQLVESGGGLVQAGGSLRLSCAASGGTFRTRNMGWFRRAPGKEREFVAAVSWSVDNKLYAGSVKGRFTISRDNGRNMVYLQMNSLKPEDTAVYYCAADNIPLSSDMRPTATEFGYWGQGTRVTVSS	0.046
FJ1427_P035MP05B05 (VHH, periplasmic extract; also called clone nr) VHH: EVQLVESGGGLVQAGGSLRLSCAASGFTFDGYAVGWFRQAPGKEPEGVSYITGSDGVTYYIDSVKGRFTISSDNAKRTVYLQMNTLKPEDTAVYYCAVDRLGSQGRYASSWWRAGDMDFWGKGTLVTVSS	0.045

The binder listed as FJ1427_P035MP05G08 (VHH, periplasmic extract; also called clone nr) VHH: QLQLVESGGGLVQAGGSLRLSCTASGLTFEGYAIGWFRQAPGKEREGVSYITGSDASTYYIDSVKGRFTISSDFAKSTVYLQMNNLKPEDTAVYYCAVDRLGSRGGYASSWWRSGDMDLWGKGTLVTVSS has a reported OD (PE binding ELISA) of 0.38
